Overview of recorded Fold-change determined at compound concentration 100 μM for various molecules
Assay target: PAPD5 (Homo sapiens, UniProt Q8NDF8)
Construct: made in house
Sequence (Q8NDF8 68-698 isoform Q8NDF8-5): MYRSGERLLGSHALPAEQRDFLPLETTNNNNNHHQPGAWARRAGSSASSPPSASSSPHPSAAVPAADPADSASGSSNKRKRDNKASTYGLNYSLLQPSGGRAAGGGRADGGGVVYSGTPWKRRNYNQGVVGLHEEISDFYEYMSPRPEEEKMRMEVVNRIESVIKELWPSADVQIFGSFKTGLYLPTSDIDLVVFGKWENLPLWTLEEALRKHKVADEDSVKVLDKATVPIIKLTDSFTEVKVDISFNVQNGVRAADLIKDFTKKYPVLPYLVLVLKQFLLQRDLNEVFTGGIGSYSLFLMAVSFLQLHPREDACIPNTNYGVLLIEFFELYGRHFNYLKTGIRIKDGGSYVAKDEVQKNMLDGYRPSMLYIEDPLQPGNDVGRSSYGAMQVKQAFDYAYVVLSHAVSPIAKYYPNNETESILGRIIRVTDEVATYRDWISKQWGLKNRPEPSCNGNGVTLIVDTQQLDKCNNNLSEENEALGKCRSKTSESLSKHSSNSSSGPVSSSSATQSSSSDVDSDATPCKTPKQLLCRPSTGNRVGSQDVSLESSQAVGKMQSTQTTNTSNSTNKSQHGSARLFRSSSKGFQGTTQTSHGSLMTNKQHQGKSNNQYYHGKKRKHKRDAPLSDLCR
Assay comment: High-throughput luminescence (KinaseGlo) RNA polyadenylation assay, ATP utilization by recombinant PAPD5
Format: biochemical
Protocol conditions: Table 4 (entries of Table 5); 100 μM compound; ratio of luminescence with inhibitor to DMSO, higher = higher inhibition
Format: numeric value only, no unit, no commentary.

- Molecule: "Cc1oc2ccccc2c1C(=O)CSc1nc(O)c2nc[nH]c2n1"
  Assay target: "PAPD5 (Homo sapiens, UniProt Q8NDF8)"
  Assay result: 1.293

Ask | Bench note: what Fold-change determined at compound concentration 100 μM did Cc1cc2[nH]c(=O)c(=O)[nH]c2cc1S(=O)(=O)Nc1ccc(OC(F)(F)F)cc1 show?
Reply | 1.301

Ask | Bench note: what Fold-change determined at compound concentration 100 μM did Cc1c(C(=O)N2CCCC2)oc2c1-c1nn(CC(=O)NCc3ccccc3Br)cc1CC2 show?
Reply | 1.616

Ask | Bench note: what Fold-change determined at compound concentration 100 μM did Cc1ccc(-c2nnc(Nc3ccc(OCC(N)=O)cc3)c3ccccc23)cc1S(=O)(=O)N(C)C show?
Reply | 1.562

Ask | Bench note: what Fold-change determined at compound concentration 100 μM did COC(=O)c1c(NC(=O)c2ccccc2C(=O)O)sc2c1CCCC2 show?
Reply | 1.607

Ask | Bench note: what Fold-change determined at compound concentration 100 μM did CN1C(=O)C(c2c(-c3ccc4ccccc4c3)[nH]c3[nH]c(=O)[nH]c(=O)c23)c2ccccc21 (stereo not drawn) show?
Reply | 1.75

Ask | Bench note: what Fold-change determined at compound concentration 100 μM did COc1cc(C2CC(=O)Nc3c2sc(C(=O)O)c3-c2cccc(F)c2)ccc1OCC(N)=O (stereo not drawn) show?
Reply | 1.412

Ask | Bench note: what Fold-change determined at compound concentration 100 μM did O=C(Cn1nc(Cc2ccncc2)c2ccccc2c1=O)N1CC=C(c2ccccc2)CC1 show?
Reply | 1.274

Ask | Bench note: what Fold-change determined at compound concentration 100 μM did O=C(O)C1Nc2ccc(Cl)cc2C2C=CCC12 (stereo not drawn) show?
Reply | 2.765

====

Assay target: PAPD5 (Homo sapiens, UniProt Q8NDF8)
Construct: made in house
Assay comment: High-throughput luminescence (KinaseGlo) RNA polyadenylation assay, ATP utilization by recombinant PAPD5
Format: biochemical
Protocol conditions: Table 4 (entries of Table 5); 100 μM compound; ratio of luminescence with inhibitor to DMSO, higher = higher inhibition
Measured parameter: Fold-change determined at compound concentration 100 μM

The examples below pair each entry with its known result.
- Compound: "O=C(CSc1nc(=O)c2ccccc2[nH]1)NCc1nc2ccccc2[nH]1"
  Assay target: "PAPD5 (Homo sapiens, UniProt Q8NDF8)"
  Assay result: 1.403
- Compound: "CCn1c(=S)sc2c(=O)n3[nH]c(=O)c4ccccc4c3nc21"
  Assay target: "PAPD5 (Homo sapiens, UniProt Q8NDF8)"
  Assay result: 1.36
- Compound: "N#C/C(=C\\c1ccc(-c2ccc(Cl)c(C(=O)O)c2)o1)c1nc2ccccc2[nH]1"
  Assay target: "PAPD5 (Homo sapiens, UniProt Q8NDF8)"
  Assay result: 1.638
- Compound: "N#CC1=C2SCN(C3CCCCC3)CN2C(=O)CC1c1ccc(Br)cc1 (stereo not shown)"
  Assay target: "PAPD5 (Homo sapiens, UniProt Q8NDF8)"
  Assay result: 1.326
- Compound: "COCCNC(=O)CSc1c2c(nc3cc(Cl)ccc13)CCCC2"
  Assay target: "PAPD5 (Homo sapiens, UniProt Q8NDF8)"
  Assay result: 1.211
- Compound: "Cc1nc[nH]c1CN1CCc2c(c3ccccc3n2C)C1=O"
  Assay target: "PAPD5 (Homo sapiens, UniProt Q8NDF8)"
  Assay result: 2.308
- Compound: "COc1ccc(NC(=O)c2ccc3c(SCC(=O)O)c4c(nc3c2)CCCC4)c(OC)c1"
  Assay target: "PAPD5 (Homo sapiens, UniProt Q8NDF8)"
  Assay result: 1.276
- Compound: "CC(C)Cn1cc(NC(=O)NCc2ccc(Cl)cc2)c2ccccc2c1=O"
  Assay target: "PAPD5 (Homo sapiens, UniProt Q8NDF8)"
  Assay result: 1.364
- Compound: "Cc1ccc2c(=O)cc(CSc3ncn[nH]3)[nH]c2c1C"
  Assay target: "PAPD5 (Homo sapiens, UniProt Q8NDF8)"
  Assay result: 1.883
- Compound: "COc1ccc(-c2[nH]nc3nc(-c4cc(Br)ccc4OC)cc(C(=O)O)c23)cc1"
  Assay target: "PAPD5 (Homo sapiens, UniProt Q8NDF8)"
  Assay result: 1.309

Attention now turns to another entry.
Ask | Bench note: what Fold-change determined at compound concentration 100 μM did O=C(O)c1cccc(Nc2ncnc3ccc(Br)cc23)c1 show?
Reply | 1.236

====

Assay target: PAPD5 (Homo sapiens, UniProt Q8NDF8)
Construct: made in house
Assay comment: High-throughput luminescence (KinaseGlo) RNA polyadenylation assay, ATP utilization by recombinant PAPD5
Format: biochemical
Protocol conditions: Table 4 (entries of Table 5); 33 μM compound; ratio of luminescence with inhibitor to DMSO
Measured parameter: Fold-change determined at compound concentration 33 μM
Format: numeric value only, no unit, no commentary.

The examples below pair each entry with its known result.
- Compound: "CCS(=O)(=O)c1nc2ccc(NS(=O)(=O)c3ccc(F)c(F)c3)cc2s1"
  Assay target: "PAPD5 (Homo sapiens, UniProt Q8NDF8)"
  Assay result: 1.08
- Compound: "CCOC(=O)c1cccc(NS(=O)(=O)c2cc3[nH]c(=O)c(=O)[nH]c3cc2C)c1"
  Assay target: "PAPD5 (Homo sapiens, UniProt Q8NDF8)"
  Assay result: 1.272
- Compound: "CCCCN(CC)C(=O)CCCn1c(=O)c2cccn2c2ccccc21"
  Assay target: "PAPD5 (Homo sapiens, UniProt Q8NDF8)"
  Assay result: 1.083
- Compound: "Cc1ccccc1CSc1nc(=O)c2[nH]cnc2[nH]1"
  Assay target: "PAPD5 (Homo sapiens, UniProt Q8NDF8)"
  Assay result: 1.109

Ask | Bench note: what Fold-change determined at compound concentration 33 μM did CCOc1cc(C2CC(=O)Nc3c2sc(C(=O)O)c3-c2cccc(F)c2)ccc1OCC(N)=O (centres unmarked) show?
Reply | 1.084

Ask | Bench note: what Fold-change determined at compound concentration 33 μM did CCOc1ccccc1CNC(=O)Nc1cn(CC(C)C)c(=O)c2ccccc12 show?
Reply | 1.113

Ask | Bench note: what Fold-change determined at compound concentration 33 μM did COc1cccc(CNC2=Nc3ccccc3NC23CCCCC3)c1 show?
Reply | 1.113

====

Overview of recorded Fold-change determined at compound concentration 33 μM for various molecules
Assay target: PAPD5 (Homo sapiens)
Construct: made in house
Assay comment: High-throughput luminescence (KinaseGlo) RNA polyadenylation assay, ATP utilization by recombinant PAPD5
Type: biochemical
Protocol conditions: Table 4 (entries of Table 5); 33 μM compound; ratio of luminescence with inhibitor to DMSO
Format: numeric value only, no unit, no commentary.

The examples below pair each entry with its known result.
- Molecule: "Cc1ccc(C)c(NC(=O)c2ccc3c(O)c(S(=O)(=O)c4ccc(Cl)cc4)c(O)nc3c2)c1 [Entry 96]"
  Assay result: 1.184
- Molecule: "O=c1c(S(=O)(=O)c2cccc(F)c2)c[nH]c2c(F)c(Cl)ccc12 [Entry 104]"
  Assay result: 1.048
- Molecule: "Nc1c2ccccc2nc2ccccc12 [Entry 30, acridin-9-amine]"
  Assay result: 1.313
- Molecule: "Cc1cc(C)c2c(=O)cc(CSc3nnc(-c4cccc(F)c4)n3C)[nH]c2c1 [Entry 106]"
  Assay result: 1.218
- Molecule: "CCOC(=O)Cc1cc(=O)oc2cc(O)cc(O)c12 [Entry 128]"
  Assay result: 1.314

Ask | Bench note: what Fold-change determined at compound concentration 33 μM did Cc1c(C(=O)N2CCCC2)oc2c1-c1nn(CC(=O)NCCCOC(C)C)cc1CC2 [Entry 168] show?
Reply | 1.452

====

Assay target: PAPD5 (Homo sapiens, UniProt Q8NDF8)
Construct: made in house
Assay comment: High-throughput luminescence (KinaseGlo) RNA polyadenylation assay, ATP utilization by recombinant PAPD5
Format: biochemical
Protocol conditions: Table 4 (entries of Table 5); 100 μM compound; ratio of luminescence with inhibitor to DMSO, higher = higher inhibition
Measured parameter: Fold-change determined at compound concentration 100 μM

The examples below pair each entry with its known result.
- Compound: "COc1ccc2c(c1)[nH]c1c(C)nccc12"
  Assay result: 1.342
- Compound: "O=C(O)c1ccc(Nc2c(-c3cc(Br)ccc3O)nc3cnccn23)cc1"
  Assay result: 1.419
- Compound: "NC(=O)C1CCN(c2nc3c(S(=O)(=O)c4ccccc4)nnn3c3ccsc23)CC1"
  Assay result: 1.651

Ask | Bench note: what Fold-change determined at compound concentration 100 μM did Cc1c2c(=O)n(-c3nc4ccccc4s3)[nH]c2cc(=O)n1Cc1ccc(C(=O)O)cc1 show?
Reply | 1.4

Ask | Bench note: what Fold-change determined at compound concentration 100 μM did O=c1oc2cc(O)c(O)cc2c2c1CCCC2 show?
Reply | 1.615

Ask | Bench note: what Fold-change determined at compound concentration 100 μM did CCn1cnc2c(=O)oc3ccc(S(=O)(=O)Nc4ccc(OC)cc4)cc3c21 show?
Reply | 1.366

Ask | Bench note: what Fold-change determined at compound concentration 100 μM did CCN(CC)CCNC(=O)c1ccc(Cn2c(=O)c3cccn3c3cccnc32)cc1 show?
Reply | 1.223

Ask | Bench note: what Fold-change determined at compound concentration 100 μM did Cc1ccc(-c2cn3c(n2)sc2ccc(C(=O)NCCCN4CCCCCC4)cc23)cc1 show?
Reply | 1.262

Ask | Bench note: what Fold-change determined at compound concentration 100 μM did c1cc(OCCN2CCCCC2)cc(-c2n[nH]c3ccc(-c4ncn[nH]4)cc23)c1 show?
Reply | 1.239
